Molecular target: T1, hPRLR.mFc (soluble dimeric human PRLR) (human)
T1 construct: dimeric construct
T1 chain: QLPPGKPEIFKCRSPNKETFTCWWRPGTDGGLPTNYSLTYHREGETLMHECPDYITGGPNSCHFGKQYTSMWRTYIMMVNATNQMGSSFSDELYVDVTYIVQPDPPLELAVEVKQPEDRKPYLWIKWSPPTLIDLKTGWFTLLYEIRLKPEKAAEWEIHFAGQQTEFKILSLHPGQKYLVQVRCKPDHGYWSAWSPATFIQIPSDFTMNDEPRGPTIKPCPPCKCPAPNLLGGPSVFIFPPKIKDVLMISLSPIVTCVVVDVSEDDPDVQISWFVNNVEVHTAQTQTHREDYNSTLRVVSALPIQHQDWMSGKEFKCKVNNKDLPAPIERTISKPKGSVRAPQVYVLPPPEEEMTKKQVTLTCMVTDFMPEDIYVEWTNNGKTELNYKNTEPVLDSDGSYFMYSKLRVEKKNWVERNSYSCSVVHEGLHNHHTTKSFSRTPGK
Assay: SPR, 37C, mAb capture
measurement label: T½ (h)
Answer with a number only, understood to be in h.

binder: H1H6801P (antibody, human IgG1, V domains shown, human IgG1 Fc (H1H)) VH: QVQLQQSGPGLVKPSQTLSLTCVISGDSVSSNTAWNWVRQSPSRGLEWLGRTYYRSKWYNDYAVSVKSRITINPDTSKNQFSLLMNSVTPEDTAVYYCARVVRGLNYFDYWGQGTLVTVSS VL: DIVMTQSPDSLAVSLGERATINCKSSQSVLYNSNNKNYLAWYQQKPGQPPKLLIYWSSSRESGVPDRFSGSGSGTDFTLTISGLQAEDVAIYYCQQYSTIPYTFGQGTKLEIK
unit text: h
T½: 0.867
--
binder: H1H6959N2 (antibody, human IgG1, V domains shown, also called H2M6959N2) VH: EVQLVESGGGLVQPGRSLRLSCAASGFTFDDYAMHWVRQAPGKGLEWVSGISWHSGIIGYADSVKGRFTISRDNAKNSLYLQMNSLRTEDAALYYCAKIGSYFYFDSWGQGTLVTVSS VL: EIVLTQSPGTLSLSPGERATLSCRASQSVSSNYLAWYQQKPGQAPRLLIYGASSRATGIPDRFSGSGSGTDFTLTISRLEPEDFAVYYCQQFGSSGYTFGQGTNLEIK
unit text: h
T½: 0.0833
--
binder: H1H6966N (antibody, human IgG1, V domains shown, also called H2M6966N) VH: QVQLVQSGAEVQKPGASVKVSCKVSGYTLTALSIHWVRQAPGKGLEWMGNFDPGDGETIHAQKFQGRVTMTGDTSTDTAYMELSSLRSEDTAVYYCVGVTFDYWGQGTLVTVSS VL: EIVMTQSPATLSVSPGERATLSCRASQSVASNLAWYQQKPGQAPRLLLYGASTRATGIPARFSGSGSGTEFTLTISSLQSEDFALYYCQHYNNWPLTFGGGTKVEIK
unit text: h
T½: 1.52
--
binder: H1H6785P (antibody, human IgG1, V domains shown, human IgG1 Fc (H1H)) VH: EVQLVESGGGLVQPGGSLRLSCAASGFTFSSYEMNWVRQAPGKGLEWISYISSRGGTIYYADSIKGRFTIYRDNARNSLYLQMNSLRAEDTAIYYCARLSGVDIFDIWGQGTMVTVSS VL: DIQMTQSPSSLSASVGDRVTITCRASQGISNYLAWYQQKPGKVPKLLIYFASTLQSGVPSRFSGGGSGTDFTLTISSLQPEDVATYYCQRYNSAPLTFGGGTKVEIK
unit text: h
T½: 1.65
--
binder: H1H6804P (antibody, human IgG1, V domains shown, human IgG1 Fc (H1H)) VH: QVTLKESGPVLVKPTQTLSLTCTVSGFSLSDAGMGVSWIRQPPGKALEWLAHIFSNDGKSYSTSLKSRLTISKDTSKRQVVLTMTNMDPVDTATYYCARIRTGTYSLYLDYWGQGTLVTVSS VL: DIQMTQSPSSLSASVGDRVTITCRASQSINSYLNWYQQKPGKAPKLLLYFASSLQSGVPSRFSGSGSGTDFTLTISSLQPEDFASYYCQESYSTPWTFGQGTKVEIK
unit text: h
T½: 0.933

Memo: H1H6967N (antibody, human IgG1, V domains shown, also called H2M6967N) VH: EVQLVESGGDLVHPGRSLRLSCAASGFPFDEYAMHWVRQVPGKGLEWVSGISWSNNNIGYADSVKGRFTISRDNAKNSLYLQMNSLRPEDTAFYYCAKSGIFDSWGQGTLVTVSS VL: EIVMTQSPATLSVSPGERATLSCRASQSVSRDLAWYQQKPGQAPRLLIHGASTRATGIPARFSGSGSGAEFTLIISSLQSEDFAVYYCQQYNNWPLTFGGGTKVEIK , reported T½: 1.98

Memo: H1H6976N (antibody, human IgG1, V domains shown, also called H2M6976N) VH: EVQLLESGGGFVQPGGSLRLSCAASGFTFSSYAMSWVRQAPGKGLEWVSIISSNGRYTYYADSVKGRFTISRDNSKNTLYLQMNSLRAEDTAVYYCATVTGDWFDPWGQGTLVTVSS VL: DIQLTQSPSFLSASVGDRVTITCWASQDIDISLAWYQQKPGKAPKLLIYAASTLQSGVPSKFSGSGSGTDFTLTISSLQPEDFSTYYCQQLNSYPITFGQGTRLDIK , reported T½: 1.38

Memo: H1H6803P (antibody, human IgG1, V domains shown, human IgG1 Fc (H1H)) VH: EVQLVESGGGVVRPGGSLRLSCAASGFKFDDYGMTWVRHVPGKGLEWVSGINWNGGRTGYTDSVKGRFTISRDNAKNSLYLQMNSLRAEDTALYHCAGARRDAFDIWGQGTMVTVSS VL: DIQMTQSPSSLSASIGDRVTITCRASQNIIKYLNWYQQNAGKAPKLLIYTASSLQSGVPSRFSGSGSGTDFTLTISSLQPEDFATYYCQQSSSSPYTFGQGTKLEIK , reported T½: 3.1

Memo: H1H6797P (antibody, human IgG1, V domains shown, human IgG1 Fc (H1H)) VH: EVQLVESGGGLVQPGGSLRLSCIVSGFTFSGSWMSWVRQLPGKGLEWVANIKEDGSDSYYVDSVEGRFTISRDNAKSSLYLQMNSLRVDDTAVYFCARARTVPLHYWGQGTLVTVSS VL: DIQMTQSPSTLSASVGDRVTITCRASQSINIWLAWYQQKPGKAPKLLIYRASYLESGVPSSFAGGGSGTEFTLTISSLQPDDFGTYYCQHYNSYPFTFGQGTKLEIK , reported T½: 1.55

Memo: H1H6790P (antibody, human IgG1, V domains shown, human IgG1 Fc (H1H)) VH: EVQLVESGGGLVQPGGSLRLSCAASGFTFSSYAMTWVRQAPGKGLEWVSAITGSVGNTYYADSVKGRFTISRDNSKNTLYLQMNSLGAEDTAEYYCAKGAGMTTNWYLDLWGRGTLVTVSS VL: DIVMTQSPDSLAVSLGARATINCKSSQSVLYSSNNQNYLTWYQQKPGQPPKLLIKWASTRESGVPDRFSGSGSGTDFTLTISSLQAEDVAVYYCQQYASSPYTFGQGTKLEIK , reported T½: 0.967

meta.source: patent US20150056222A1
